Tested on: Pseudoperonospora cubensis (PSPECU)
Test: Droplet application on cucumber leaf, growth chamber (Examples 5a-d)
Format: in vivo
Conditions: substance alone 500 ppm; untreated check 91%
Parameter threshold = 90%. Response is Condition met when % disease at 500 ppm of substance alone meets or exceeds it, else Condition not met.

compound: CC(C)CC=O
target-entity: Pseudoperonospora cubensis (PSPECU)
classification: Condition met
//
compound: CCC(C)C=O (stereo not drawn)
target-entity: Pseudoperonospora cubensis (PSPECU)
classification: Condition not met
//
compound: CC(C)=CC=O
target-entity: Pseudoperonospora cubensis (PSPECU)
classification: Condition not met
//
compound: CC(C)(C)CC=O
target-entity: Pseudoperonospora cubensis (PSPECU)
classification: Condition not met
//
compound: CC(C)CO
target-entity: Pseudoperonospora cubensis (PSPECU)
classification: Condition met
//
compound: CCCCC=O
target-entity: Pseudoperonospora cubensis (PSPECU)
classification: Condition met
